assay-system: SaTyrAnc
test-context: competitive model; 500 µM arogenate, 1 mM NADP+, pH 7.5, 37 °C
pKi: −log10 of the molar value.

>  <smi>
N[C@@H](Cc1ccc(O)cc1)C(=O)O

>  <pKi>
4.46

$$$$

====

assay-system: JaTyrA1
test-context: competitive model; 500 µM arogenate, 1 mM NADP+, pH 7.5, 37 °C
pKi: −log10 of the molar value.

>  <smi>
N[C@@H](Cc1ccc(O)cc1)C(=O)O

>  <assay-system>
JaTyrA1

>  <pKi>
4.62

$$$$

====

assay-system: OsTyrAnc (Oryza sativa)
Sequence (Q5Z6Y1 50-342): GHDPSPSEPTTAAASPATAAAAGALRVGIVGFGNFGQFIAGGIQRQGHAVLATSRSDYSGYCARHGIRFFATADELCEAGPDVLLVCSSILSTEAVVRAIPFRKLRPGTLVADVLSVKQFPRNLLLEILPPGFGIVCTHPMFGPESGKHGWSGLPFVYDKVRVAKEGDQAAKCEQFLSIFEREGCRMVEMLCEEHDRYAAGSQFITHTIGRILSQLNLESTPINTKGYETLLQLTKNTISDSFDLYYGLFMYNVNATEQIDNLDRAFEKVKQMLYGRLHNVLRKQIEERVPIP
pKi: −log10 of the molar value.

>  <smi>
N[C@@H](Cc1ccc(O)cc1)C(=O)O

>  <pKi>
4.11

$$$$

====

assay-system: AcTyrAnc
test-context: competitive model; 500 µM arogenate, 1 mM NADP+, pH 7.5, 37 °C
pKi: −log10 of the molar value.

>  <smi>
N[C@@H](Cc1ccc(O)cc1)C(=O)O

>  <pKi>
4.12

$$$$

====

assay-system: JaTyrAnc
test-context: competitive model; 500 µM arogenate, 1 mM NADP+, pH 7.5, 37 °C
pKi: −log10 of the molar value.

>  <compound>
N[C@@H](Cc1ccc(O)cc1)C(=O)O [tyrosine]

>  <pKi>
3.97

$$$$

====

assay-system: OsTyrA1 (Oryza sativa)
Sequence (Q5Z9H5 46-353): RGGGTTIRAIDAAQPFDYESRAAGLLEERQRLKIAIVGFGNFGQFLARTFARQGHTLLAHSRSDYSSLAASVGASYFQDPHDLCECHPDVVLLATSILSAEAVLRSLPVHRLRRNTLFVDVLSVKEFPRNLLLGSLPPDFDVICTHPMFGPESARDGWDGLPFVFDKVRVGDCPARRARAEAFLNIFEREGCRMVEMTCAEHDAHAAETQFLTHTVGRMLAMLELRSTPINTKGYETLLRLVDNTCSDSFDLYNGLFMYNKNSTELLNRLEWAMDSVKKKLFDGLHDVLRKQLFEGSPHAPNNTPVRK
test-context: read-out: IC50 (µM Tyr); 500 uM arogenate, 1 mM NADP+; inhibitor

>  <smi>
N[C@@H](Cc1ccc(O)cc1)C(=O)O

>  <IC50, µM>
53

$$$$

====

assay-system: ZmTyrAnc (Zea mays, UniProt C0PK73)
Sequence (C0PK73 50-392): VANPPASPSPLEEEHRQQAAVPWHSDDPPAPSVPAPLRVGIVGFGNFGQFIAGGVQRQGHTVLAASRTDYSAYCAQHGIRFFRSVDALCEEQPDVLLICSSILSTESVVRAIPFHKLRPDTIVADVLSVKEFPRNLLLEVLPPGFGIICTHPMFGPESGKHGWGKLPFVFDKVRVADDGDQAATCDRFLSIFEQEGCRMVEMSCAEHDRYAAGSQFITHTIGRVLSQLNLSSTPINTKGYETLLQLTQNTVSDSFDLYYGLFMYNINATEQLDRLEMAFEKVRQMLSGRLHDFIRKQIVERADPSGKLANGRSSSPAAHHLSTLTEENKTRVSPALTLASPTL

>  <smi>
N[C@@H](Cc1ccc(O)cc1)C(=O)O

>  <Ki [µM]>
352

$$$$

====

assay-system: AcTyrA1
test-context: competitive model; 500 µM arogenate, 1 mM NADP+, pH 7.5, 37 °C
pKi: −log10 of the molar value.

>  <compound>
N[C@@H](Cc1ccc(O)cc1)C(=O)O [tyrosine]

>  <pKi>
4.92

$$$$
